- PROCEDURE_TEXT: Bioanalysis of plasma and brain concentrations by UPLC-MS/MS
- Type: in vivo, mice
- CONDITION_INFO: mouse, in vivo, Location Brain, i.p., 30 min post-dose, Compound I 100 mg/kg, Compound II 150 mg/kg, read-out: Plasma Conc., Location Brain (individual animal)
MEASURED_PARAMETER: Brain concentration at 30 min

C=C(C)[C@@H]1CCC(CO)=C[C@H]1c1c(O)cc(CCCC)cc1O [Compound I]; 131 µM
C=C(C)[C@@H]1CCC(C(=O)O)=C[C@H]1c1c(O)cc(CCCC)cc1O [Compound II]; 15.7 µM

---

- PROCEDURE_TEXT: Bioanalysis of plasma and brain concentrations by UPLC-MS/MS
- Assay type: in vivo, mice
- CONDITION_INFO: mouse, in vivo, Location Brain, i.p., 30 min post-dose, Compound I 100 mg/kg, Compound II 150 mg/kg, read-out: Mean Plasma Conc., Location Brain
Parameter: Brain concentration at 30 min. Scope: all listed entries.
MEASURED_PARAMETER: Brain concentration at 30 min (µM)

C=C(C)[C@@H]1CCC(CO)=C[C@H]1c1c(O)cc(CCCC)cc1O [Compound I]; 122
C=C(C)[C@@H]1CCC(C(=O)O)=C[C@H]1c1c(O)cc(CCCC)cc1O [Compound II]; 19.8

---

Listed here: items and their measured concentration at 30 min.
- PROCEDURE_TEXT: Bioanalysis of plasma and brain concentrations by UPLC-MS/MS
- Format: in vivo, mice
- CONDITION_INFO: mouse, in vivo, Location Plasma, i.p., 30 min post-dose, Compound I 100 mg/kg, Compound II 150 mg/kg, read-out: Mean Plasma Conc.
MEASURED_PARAMETER: concentration at 30 min (µM)

C=C(C)[C@@H]1CCC(CO)=C[C@H]1c1c(O)cc(CCCC)cc1O; 251
C=C(C)[C@@H]1CCC(C(=O)O)=C[C@H]1c1c(O)cc(CCCC)cc1O; 1050

Taken from patent US20240254072A1.
